Before we begin, note that these pKi values for Adenosine receptor A2a (Homo sapiens, UniProt P29274) originate from several publications.
pKi: −log10 of the molar value.
readout: pKi

molecular.string: CCCCC#Cc1nc(NCC(c2ccccc2)c2ccccc2)c2ncn([C@@H]3C[C@H](NC(=O)CC)[C@@H](O)[C@H]3O)c2n1
recorded.measurement: 8.10
//
molecular.string: Cc1cc(-c2sc(NC(=O)N3CC4(CCO4)C3)nc2-c2cccc(C#N)c2)cc(C)n1
recorded.measurement: 9.51
//
molecular.string: Cc1cc(-c2c(-c3cccc(C#N)c3)nn3ccc(C(=O)NC4CN(C)C4)nc23)cc(Cl)n1
recorded.measurement: 8.23
//
molecular.string: CO[C@H]1CN(C)C[C@@H]1Nc1ccn2nc(-c3cccc(C#N)c3)c(-c3cc(C)nc(Cl)c3)c2n1
recorded.measurement: 9.05
//
molecular.string: Cc1cc(-c2sc(NC(=O)N3CCC4(CCNC4=O)CC3)nc2-c2cccc(C#N)c2)cc(C)n1
recorded.measurement: 9.00
//
molecular.string: N#Cc1c(-c2ccco2)nn2ccc(NCC3CCN(Cc4ccccc4)CC3)nc12
recorded.measurement: 7.16
//
molecular.string: Cc1cc(-c2c(-c3cccc(C#N)c3)nn3ccc(C(=O)NCC(C)(C)O)nc23)cc(C(F)F)n1
recorded.measurement: 10.00
//
molecular.string: Ic1c(-c2ccco2)nn2ccc(NCc3ccccc3)nc12
recorded.measurement: 7.33

---

pKi: −log10 of the molar value.
Collected from the literature: pKi of various molecules toward Adenosine receptor A2a (Homo sapiens).

molecule: Cc1cnn([C@H]2C[C@@H](n3cnc4c(NCC(c5ccccc5)c5ccccc5)nc(NCCc5cnc[nH]5)nc43)[C@H](O)[C@@H]2O)c1
modifier.sign: =
pKi: 6.76
--
molecule: N#Cc1cccc(-c2cc3nc(C(O)c4c(F)cccc4F)nn3c(N)n2)c1F (stereo not shown)
modifier.sign: >
pKi: 8.00
--
molecule: Cc1cc(-c2sc(NC(=O)N3CC4(COC4)C3)nc2-c2cccc(C#N)c2)cc(C(C)(C)O)n1
modifier.sign: =
pKi: 9.55
--
molecule: Cc1cc(-c2sc(NC(=O)N3CCN[C@@H](C(F)(F)F)C3)nc2-c2cccc(C#N)c2)cc(C)n1
modifier.sign: =
pKi: 9.32
--
molecule: Cc1cc(-c2c(-c3cccc(C#N)c3)nn3ccc(N)nc23)cc(C)n1
modifier.sign: =
pKi: 8.66
--
molecule: Cc1cc(-c2c(-c3cccc(C#N)c3)nn3ccc(N[C@H](C)C(C)(C)O)nc23)cc(Cl)n1
modifier.sign: =
pKi: 8.47
--
molecule: Cc1cc(-c2c(-c3cccc(C#N)c3)nn3ccc(C(=O)N[C@@H]4COC[C@H]4O)nc23)cc(C)n1
modifier.sign: =
pKi: 8.68
--
molecule: Cc1cc(-c2sc(NC(=O)N3CCO[C@@H](CO)C3)nc2-c2cccc(C#N)c2)cc(C)n1
modifier.sign: =
pKi: 9.05
--
molecule: Cc1cc(-c2sc(NC(=O)N3CCC(C#N)(CO)CC3)nc2-c2cccc(C#N)c2)cc(CO)n1
modifier.sign: =
pKi: 9.38
--
molecule: N#Cc1c(-c2ccc(F)cc2)nn2ccc(NCc3ccccc3)nc12
modifier.sign: =
pKi: 7.31
--
molecule: Cc1cc(-c2c(-c3cccc(C#N)c3)nn3ccc(C(=O)NC4(C)CCNC4)nc23)cc(Cl)n1 (stereo not shown)
modifier.sign: =
pKi: 8.62
--
molecule: Cc1cc(-c2c(-c3cccc(C#N)c3)nn3ccc(N[C@H]4CCNC4)nc23)cc(Cl)n1
modifier.sign: =
pKi: 8.29
--
molecule: Cc1cc(-c2sc(NC(=O)N3CCn4ccnc4C3)nc2-c2cccc(C#N)c2)cc(C)n1
modifier.sign: =
pKi: 9.00
--
molecule: Cc1cc(-c2c(-c3cccc(C#N)c3)nn3ccc(C(=O)NCC4(O)COC4)nc23)cc(Cl)n1
modifier.sign: =
pKi: 8.85
--
molecule: NCCC(=O)N(CCc1c[nH]c2ccccc12)C(C(=O)NCc1ccccc1)c1ccc(Br)cc1Br (stereo not shown)
modifier.sign: =
pKi: 5.54
--
molecule: Cc1cc(-c2c(-c3cccc(C#N)c3)nn3ccc(C(=O)NCC4CCCN(C)C4=O)nc23)cc(C)n1 (stereo not shown)
modifier.sign: =
pKi: 9.40
--
molecule: Cc1cc(-c2c(-c3cccc(C#N)c3)nn3ccc(C(=O)N[C@@H]4COC[C@@]4(C)O)nc23)cc(C)n1
modifier.sign: =
pKi: 9.00
--
molecule: Cc1cc(-c2sc(NC(=O)N3CCC(c4ncc[nH]4)CC3)nc2-c2cccc(C#N)c2)cc(C)n1
modifier.sign: =
pKi: 8.76
--
molecule: Cc1cc(-c2c(-c3cccc(C#N)c3)nn3ccc(C(=O)N[C@H]4COC[C@@H]4O)nc23)cc(C)n1
modifier.sign: =
pKi: 8.72
--
molecule: NC(=O)c1c(-c2ccco2)nn2ccc(NCc3ccccc3)nc12
modifier.sign: =
pKi: 8.57
--
molecule: Cc1cccnc1CNc1ccn2nc(-c3cccc(F)c3)cc2n1
modifier.sign: =
pKi: 7.14
--
molecule: CO[C@H]1CN(C)C[C@@H]1NC(=O)c1ccn2nc(-c3cccc(C#N)c3)c(-c3cc(C)nc(Cl)c3)c2n1
modifier.sign: =
pKi: 8.96
--
molecule: Cc1cc(-c2c(-c3cccc(C#N)c3)nn3ccc(NC(=O)NCC(C)(C)O)nc23)cc(Cl)n1
modifier.sign: =
pKi: 8.89
--
molecule: Cc1cc(-c2sc(NC(=O)N3CCC(C)(C#N)CC3)nc2-c2cccc(C#N)c2)cc(Cl)n1
modifier.sign: =
pKi: 10.05
--
molecule: Cn1cc(-c2c(-c3cccc(C#N)c3)nn3ccc(N)nc23)cn1
modifier.sign: =
pKi: 6.98
--
molecule: Cc1cc(-c2sc(NC(=O)N3CCC4(CCOCC4)C3)nc2-c2cccc(C#N)c2)cc(C)n1
modifier.sign: =
pKi: 9.02
--
molecule: Cc1cc(-c2c(-c3cccc(C#N)c3C)nn3ccc(C(=O)NCC(C)(C)O)nc23)cc(C)n1
modifier.sign: =
pKi: 9.52
--
molecule: N#Cc1cccc(-c2nc(N)n3nc(Cc4ccccn4)nc3c2-c2ccncn2)c1
modifier.sign: >
pKi: 8.00
--
molecule: Cc1cc(-c2sc(NC(=O)N3CC(N4CCCC4)C3)nc2-c2cccc(C#N)c2)cc(C)n1
modifier.sign: =
pKi: 8.00
--
molecule: CC(=O)N[C@H]1CCN(Cc2cccc(F)c2Cc2nc3cc(-c4cccc(C#N)c4F)nc(N)n3n2)C1
modifier.sign: >
pKi: 8.00
--
molecule: Cc1cc(-c2sc(NC(=O)N3CCC4(CCC(=O)N4)CC3)nc2-c2cccc(C#N)c2)cc(C)n1
modifier.sign: =
pKi: 9.36
